Test system: T47D cells
Test: Cell cycle assay in T47D cells
Assay type: cell-based, human
Settings: 150 nM, 48 hours, relative to untreated control
Protocol: BJ cells were routinely cultured in MEM high glucose with 2 mM L-glutamine and Earle's BSS adjusted to contain 1.5 g/L sodium bicarbonate and supplemented with 10% fetal bovine serum, 0.1 mM non-essential amino acids and 1.0 mM sodium pyruvate (all media and supplements from Invitrogen Life Technologies, Carlsbad, Calif.). […]
In the oligonucleotide strings, read from the 5' end, every base follows the letter of its sugar. An asterisk marks phosphorothioate; unmarked linkages are phosphodiester. Other units and linkages are bracketed, terminal groups are in braces. A string of capitals states the bases alone. e = 2'-O-(2-methoxyethyl) (MOE); [5mC] = 5-methylcytosine; d = 2'-deoxy (DNA)
measuredQuantity: % cells in cell cycle phase subG1
Please append the unit to your numeric answer.

Consider the following illustrative entries.
substance	% cells in cell cycle phase subG1
328759 (antisense eG*eA*eG*eG*eG*dA*dT*dT*dG*dT*dA*dT*dG*dA*dA*e[5mC]*eA*eT*e[5mC]*eT) [compound 328759]	123%
25691 (antisense eG*e[5mC]*e[5mC]*eA*eA*dG*dG*d[5mC]*dG*dT*dG*dA*d[5mC]*dA*dT*eG*eA*eT*eA*eT) [compound 25691]	125%
327902 (antisense eG*eG*e[5mC]*eT*eG*eT*e[5mC]*eA*eA*eT*eT*e[5mC]*eA*eT*eA*eG*eG*eT*e[5mC]*eA*eG) [compound 327902]	102%
327905 (antisense e[5mC]*eA*eG*eA*e[5mC]*eT*e[5mC]*e[5mC]*eG*eG*eT*eG*eG*eA*eA*eT*eG*eA*eA*eG*eG*eA) [compound 327905]	81%

Continue with the next substance.
Prompt: I have this substance here, 328744 (antisense e[5mC]*eG*eG*eA*eT*d[5mC]*d[5mC]*dT*dG*dT*dT*dA*d[5mC]*d[5mC]*dT*e[5mC]*eA*e[5mC]*e[5mC]*eA) [compound 328744] , and I need its recorded % cells in cell cycle phase subG1.
Response: 85%
